The measurements presented in this section are drawn from patent US20250250357A1.

- assay-system: T1, human MSLN-R1-his protein (human, UniProt Q13421 296-390)
- T1 construct: Region 1 of human mesothelin, made in HEK293E cells, His-tagged; also called human MSLN-R1 protein; hMSLN-R1-his; not shown: His tag
- T1 chain: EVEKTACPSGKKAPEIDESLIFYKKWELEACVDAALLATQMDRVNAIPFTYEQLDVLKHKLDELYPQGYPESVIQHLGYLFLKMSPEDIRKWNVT
- experiment-summary: ELISA on coated MSLN-R1; no antibody (blank)

- binder: "S009-F8-22.23 (antibody, human IgG1, kappa, V domains shown) VH: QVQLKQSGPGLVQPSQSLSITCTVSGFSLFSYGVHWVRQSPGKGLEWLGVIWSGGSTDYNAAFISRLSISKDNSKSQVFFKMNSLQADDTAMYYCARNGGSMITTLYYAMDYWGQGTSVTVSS VL: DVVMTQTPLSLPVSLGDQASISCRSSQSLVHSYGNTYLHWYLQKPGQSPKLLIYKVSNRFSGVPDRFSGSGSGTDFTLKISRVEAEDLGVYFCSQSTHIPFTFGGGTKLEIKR"
  OD450 [OD450]: 0.04
- binder: "S009-F8-32.3 (antibody, human IgG1, kappa, V domains shown) VH: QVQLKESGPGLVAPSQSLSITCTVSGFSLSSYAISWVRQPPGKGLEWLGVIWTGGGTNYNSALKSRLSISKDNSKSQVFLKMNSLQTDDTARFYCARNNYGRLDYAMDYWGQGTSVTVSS VL: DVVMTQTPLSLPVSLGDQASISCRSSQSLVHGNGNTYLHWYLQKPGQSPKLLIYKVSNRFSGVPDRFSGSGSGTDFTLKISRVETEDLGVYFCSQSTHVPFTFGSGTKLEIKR"
  OD450 [OD450]: 0.04
- binder: "S009-F8-5.15 (antibody, human IgG1, kappa, V domains shown) VH: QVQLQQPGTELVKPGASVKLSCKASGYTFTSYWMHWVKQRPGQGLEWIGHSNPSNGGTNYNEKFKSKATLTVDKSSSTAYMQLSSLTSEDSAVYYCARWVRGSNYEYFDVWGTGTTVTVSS VL: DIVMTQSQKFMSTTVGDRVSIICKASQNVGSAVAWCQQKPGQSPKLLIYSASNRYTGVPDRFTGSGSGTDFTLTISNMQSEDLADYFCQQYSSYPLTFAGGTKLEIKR"
  OD450 [OD450]: 0.05
